# Test system: DU-145
# Protocol description: Growth inhibition of human DU145 cells after 96 hrs by trypan blue exclusion assay
# Type: functional
# Measurement context: DU-145, 96 h
Attribute: GI50
Reported endpoint: GI50 (µM)

[[record]]
molecule = "COc1ccc(/C=C(\\C(=O)c2ccc(Cl)cc2)S(=O)(=O)Cc2ccc(Cl)cc2)c(OC)c1OC"
reported_endpoint = "GI50"
prefix_operator = "="
readout_number = 10

[[record]]
molecule = "COc1ccc(/C=C(/SCc2ccc(F)cc2)C(=O)c2ccc(Br)cc2)cc1"
reported_endpoint = "GI50"
prefix_operator = "="
readout_number = 50

[[record]]
molecule = "COc1ccc(/C=C(\\C(=O)c2ccc(Br)cc2)S(=O)(=O)Cc2ccc(F)cc2)cc1"
reported_endpoint = "GI50"
prefix_operator = "="
readout_number = 25

[[record]]
molecule = "Cc1ccsc1/C=C(\\C(=O)c1ccc([N+](=O)[O-])cc1)S(=O)(=O)Cc1ccc(Cl)cc1"
reported_endpoint = "GI50"
prefix_operator = "="
readout_number = 1

[[record]]
molecule = "Cc1ccsc1/C=C(/SCc1ccc(Cl)c(Cl)c1)C(=O)c1ccc(Cl)cc1"
reported_endpoint = "GI50"
prefix_operator = "="
readout_number = 50

[[record]]
molecule = "O=C(/C(=C\\c1ccc([N+](=O)[O-])c(O)c1)SCc1ccc(Br)cc1)C1CCNC1 (centres undefined)"
reported_endpoint = "GI50"
prefix_operator = ">"
readout_number = 100

[[record]]
molecule = "Cc1ccsc1/C=C(/SCc1ccc(Cl)cc1Cl)C(=O)c1ccc(Cl)cc1"
reported_endpoint = "GI50"
prefix_operator = "="
readout_number = 10

[[record]]
molecule = "COc1ccc(C(=O)/C(=C\\c2ccc(Br)cc2)Sc2ccc(F)cc2)cc1"
reported_endpoint = "GI50"
prefix_operator = ">"
readout_number = 100

[[record]]
molecule = "O=C(/C(=C\\c1ccc(Br)cc1)SCc1ccc(F)cc1)c1ccc(Br)cc1"
reported_endpoint = "GI50"
prefix_operator = "="
readout_number = 25


Numbers sourced from ChEMBL document CHEMBL1240409.
